As shown below, each of these compounds has a reported EC50 value.
measured-target: human EDG8 (S1PR5) receptor (Homo sapiens, UniProt Q9H228)
Construct: expressed in transfected cells; host or cells: CHO (clone CHO-A21-EDG8 #12)
Sequence (Q9H228 whole entry): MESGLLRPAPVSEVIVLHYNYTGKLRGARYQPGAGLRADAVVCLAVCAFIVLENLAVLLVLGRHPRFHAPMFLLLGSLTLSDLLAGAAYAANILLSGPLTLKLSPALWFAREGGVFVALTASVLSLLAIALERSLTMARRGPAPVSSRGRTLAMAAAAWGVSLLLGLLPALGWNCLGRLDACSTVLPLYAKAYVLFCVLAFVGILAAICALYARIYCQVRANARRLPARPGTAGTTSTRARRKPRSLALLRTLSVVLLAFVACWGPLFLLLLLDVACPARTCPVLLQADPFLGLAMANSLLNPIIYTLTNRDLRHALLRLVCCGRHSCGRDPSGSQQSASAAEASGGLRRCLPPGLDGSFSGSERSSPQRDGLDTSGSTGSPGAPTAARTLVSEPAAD
experiment: Method 2: Aequorin assay, cell clone CHO-A21-EDG8 #12
Type: cell-based
test-parameters: agonist potency, determined with method 2 (symbols E-G); read-out: S1P5 EC50 range
Experimental: Agonistic activity was measured using two different methods, described below. Genetically Engineered Cells […] 18 hours prior to the test, vials of frozen cells are quickly thawed in a 37° C. water bath, cells are recovered by centrifugation and resuspended in assay buffer (DMEM/HAM's F12 with HEPES, without phenol red+0.1% fatty acid-free BSA). […] Cells are then placed in the luminescence reader (Hamamatsu Functional Drug Screening System 6000, FDSS6000). […]

{"compound": "O=C(O)CCN1CCc2nc(-c3ccc(OCc4ccccc4F)c(Cl)c3)ccc2C1", "EC50": "0.1 to 1 µM"}
{"compound": "CC(CC(=O)O)N1CCc2nc(-c3ccc(OCc4ccccc4)cc3)ccc2C1 (centres unmarked)", "EC50": "1 to 10 µM"}
{"compound": "O=C(O)CCN1CCc2nc(-c3ccc(OCc4ccccc4)c(Cl)c3)ccc2C1", "EC50": "0.1 to 1 µM"}
{"compound": "O=C(O)CCN1CCc2nc(-c3ccc(OCc4cccc(F)c4F)cc3)ncc2C1", "EC50": "1 to 10 µM"}

Problem: What value of EC50 on human EDG8 (S1PR5) receptor (Homo sapiens, UniProt Q9H228) does COc1cc(-c2ccc3c(n2)CCN(CCC(=O)O)C3)ccc1OCc1ccccc1 have?
Result: 1 to 10 µM

Problem: What value of EC50 on human EDG8 (S1PR5) receptor (Homo sapiens, UniProt Q9H228) does O=C(O)CCN1CCc2nc(-c3ccc(OCc4c(Cl)cccc4Cl)cc3)ncc2C1 have?
Result: 0.1 to 1 µM

Problem: What value of EC50 on human EDG8 (S1PR5) receptor (Homo sapiens, UniProt Q9H228) does Cc1cc(-c2ccc3c(n2)CCN(CCC(=O)O)C3)ccc1OCc1ccccc1 have?
Result: 0.1 to 1 µM

Problem: What value of EC50 on human EDG8 (S1PR5) receptor (Homo sapiens, UniProt Q9H228) does O=C(O)CCN1CCc2nc(-c3ccc(OCc4c(Cl)cccc4Cl)cc3)ccc2C1 have?
Result: 0.1 to 1 µM
